Cited source: paper PMC10035947

- Tested on: T-47D
- measurement-description: NCI SRB assay
- Format: cell-based, human
- experimental-context: 5-dose, read-out: LC50 (the source's name)
readout: CC50

Q: Find the measured CC50 of Cc1ccc(-c2nc(Nc3ccccc3C(=O)O)c3ccccc3n2)cc1 [6b] and report it.
A: < 100 µM

---

- Test system: SK-OV-3
- measurement-description: NCI SRB assay
- Assay type: cell-based, human
- experimental-context: SK-OV-3, 5-dose; read-out: LC50 (the source's name)
readout: CC50

Q: Find the measured CC50 of Cc1ccc(-c2nc(Nc3ccccc3C(=O)O)c3ccccc3n2)cc1 and report it.
A: < 100 µM
